Entry source: patent US11739098B2

MEASURED TARGET: UniProtKB Q9NYK1
Sequence (Q9NYK1 27-1049): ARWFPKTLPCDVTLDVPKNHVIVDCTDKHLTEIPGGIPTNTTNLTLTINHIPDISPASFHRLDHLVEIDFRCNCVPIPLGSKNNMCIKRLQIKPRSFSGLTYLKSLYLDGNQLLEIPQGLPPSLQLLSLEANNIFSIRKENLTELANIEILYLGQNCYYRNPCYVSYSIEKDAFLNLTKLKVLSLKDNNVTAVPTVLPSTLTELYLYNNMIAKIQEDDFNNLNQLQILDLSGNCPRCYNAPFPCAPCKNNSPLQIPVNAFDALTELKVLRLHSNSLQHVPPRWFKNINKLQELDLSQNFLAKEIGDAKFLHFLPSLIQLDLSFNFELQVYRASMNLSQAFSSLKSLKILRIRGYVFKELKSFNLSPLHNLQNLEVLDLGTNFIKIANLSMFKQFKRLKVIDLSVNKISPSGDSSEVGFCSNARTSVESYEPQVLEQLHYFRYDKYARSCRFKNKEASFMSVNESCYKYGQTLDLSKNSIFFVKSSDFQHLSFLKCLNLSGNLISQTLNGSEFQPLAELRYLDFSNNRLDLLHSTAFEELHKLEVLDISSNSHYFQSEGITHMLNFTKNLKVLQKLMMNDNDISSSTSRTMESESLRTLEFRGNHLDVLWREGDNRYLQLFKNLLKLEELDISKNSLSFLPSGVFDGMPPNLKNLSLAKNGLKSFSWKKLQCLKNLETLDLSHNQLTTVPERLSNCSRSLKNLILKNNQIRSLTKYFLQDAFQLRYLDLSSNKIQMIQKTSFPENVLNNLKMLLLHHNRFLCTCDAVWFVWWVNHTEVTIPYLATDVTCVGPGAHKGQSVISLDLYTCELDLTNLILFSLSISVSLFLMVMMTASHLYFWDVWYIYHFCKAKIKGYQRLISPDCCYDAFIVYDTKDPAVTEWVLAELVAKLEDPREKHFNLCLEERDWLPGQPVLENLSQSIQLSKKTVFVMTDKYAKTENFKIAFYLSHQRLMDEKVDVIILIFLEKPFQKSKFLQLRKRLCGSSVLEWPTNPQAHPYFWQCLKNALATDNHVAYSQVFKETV
EXPERIMENT: TLR7 inhibition reporter assay (HEK-Blue cells, SEAP reporter, gardiquimod stimulation)
CONDITION PARAMETERS: HEK-Blue cells overexpressing human TLR7, SEAP reporter, gardiquimod 7.5 μM
pIC50: −log10 of the molar value.

STRUCTURE SMILES STRING: CCc1c(-c2cccc3c2cnn3C)[nH]c2ccc(C3CCN(C(=O)CN[C@H]4CC[C@@H](N)CC4)CC3)cc12
pIC50: < 4.30
--
STRUCTURE SMILES STRING: CCc1c(-c2ccnc3[nH]ncc23)[nH]c2ccc(C3CCN(CCN)CC3)cc12
pIC50: > 7.00
--
STRUCTURE SMILES STRING: CNC(=O)CN1CCC(c2ccc3[nH]c(-c4cc(C)n5nc(C)cc5c4)c(C(C)C)c3c2)CC1
pIC50: > 7.00
--
STRUCTURE SMILES STRING: Cc1nc2cc(-c3[nH]c4ccc(C5CCN(C6COC6)CC5)cc4c3C(C)C)ccn2n1
pIC50: > 7.00

---

Recorded pIC50, one value per entry.
MEASURED TARGET: human TLR8 (Homo sapiens, UniProt Q9NR97)
Sequence (Q9NR97 27-1041): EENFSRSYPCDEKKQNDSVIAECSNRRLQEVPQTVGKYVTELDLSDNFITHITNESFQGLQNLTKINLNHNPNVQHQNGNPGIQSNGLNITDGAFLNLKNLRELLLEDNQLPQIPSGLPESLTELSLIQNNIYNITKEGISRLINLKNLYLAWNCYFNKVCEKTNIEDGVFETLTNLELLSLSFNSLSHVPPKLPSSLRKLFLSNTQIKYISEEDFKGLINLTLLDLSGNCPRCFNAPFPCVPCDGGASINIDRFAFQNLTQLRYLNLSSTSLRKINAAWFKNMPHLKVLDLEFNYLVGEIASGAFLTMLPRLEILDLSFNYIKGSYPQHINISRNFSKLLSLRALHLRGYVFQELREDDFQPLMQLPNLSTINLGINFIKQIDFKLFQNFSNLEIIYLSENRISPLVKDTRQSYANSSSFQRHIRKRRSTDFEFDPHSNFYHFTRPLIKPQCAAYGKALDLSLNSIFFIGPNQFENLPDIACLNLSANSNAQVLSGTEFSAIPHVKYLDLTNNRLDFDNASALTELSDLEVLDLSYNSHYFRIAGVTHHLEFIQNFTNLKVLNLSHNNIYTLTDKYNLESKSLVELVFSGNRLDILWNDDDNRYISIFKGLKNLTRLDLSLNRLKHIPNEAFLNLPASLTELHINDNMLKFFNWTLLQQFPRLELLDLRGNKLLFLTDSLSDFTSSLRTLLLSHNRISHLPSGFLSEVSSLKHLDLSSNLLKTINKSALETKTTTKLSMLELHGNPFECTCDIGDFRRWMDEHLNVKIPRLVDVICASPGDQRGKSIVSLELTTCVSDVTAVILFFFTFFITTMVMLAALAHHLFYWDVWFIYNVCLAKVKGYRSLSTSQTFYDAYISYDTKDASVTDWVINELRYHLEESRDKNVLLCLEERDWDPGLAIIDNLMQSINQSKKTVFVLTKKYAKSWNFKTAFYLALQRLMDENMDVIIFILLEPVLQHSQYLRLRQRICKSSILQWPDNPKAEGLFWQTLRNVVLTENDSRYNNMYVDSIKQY
EXPERIMENT: TLR8 inhibition reporter assay (HEK-Blue cells, SEAP reporter, R848 stimulation)
CONDITION PARAMETERS: HEK-Blue cells overexpressing human TLR8, SEAP reporter, R848 15.9 μM
pIC50: −log10 of the molar value.

STRUCTURE SMILES STRING: CCc1c(-c2ccnc3[nH]ncc23)[nH]c2ccc(C3CCN(Cc4cnc(N)s4)CC3)cc12
pIC50: < 4.30

STRUCTURE SMILES STRING: COc1cc(-c2[nH]c3ccc(C4CCNCC4)cc3c2C(C)C)c2ccccc2n1
pIC50: 6.00 to 7.00

STRUCTURE SMILES STRING: Cc1cc(-c2[nH]c3ccc(C4CCN(CC(=O)N(C)C)CC4)cc3c2C(C)C)nc2scnc12
pIC50: > 7.00

STRUCTURE SMILES STRING: Cc1cn2c(C)cc(-c3[nH]c4ccc(C5CCNCC5)cc4c3C(C)C)cc2n1
pIC50: 6.00 to 7.00

---

Recorded IC50, one value per entry.
MEASURED TARGET: human TLR8 (Homo sapiens, UniProt Q9NR97)
EXPERIMENT: TLR8 inhibition reporter assay (HEK-Blue cells, SEAP reporter, R848 stimulation)
CONDITION PARAMETERS: HEK-Blue cells overexpressing human TLR8, SEAP reporter, R848 15.9 μM

MOLECULE: Cc1cc(-c2[nH]c3ccc(C4CCN(CC(=O)N(C)C)CC4)cc3c2C(C)C)cc2nccn12 [Example 354]
MEASURED TARGET: human TLR8 (Homo sapiens, UniProt Q9NR97)
IC50: 100 to 1000 nM

MOLECULE: Cc1cc2[nH]c(-c3ccnc4[nH]ncc34)c(C(C)C)c2cc1C1CCN(C2CCN(C(C)C)CC2)CC1 [Example 826]
MEASURED TARGET: human TLR8 (Homo sapiens, UniProt Q9NR97)
IC50: < 100 nM

MOLECULE: CC(C)c1c(-c2ccnc3[nH]ncc23)[nH]c2ccc(C3CCN(C(=O)c4cn[nH]c4)CC3)cc12 [Example 610]
MEASURED TARGET: human TLR8 (Homo sapiens, UniProt Q9NR97)
IC50: 100 to 1000 nM

MOLECULE: CC(C)c1c(-c2cn(C)c3ncncc23)[nH]c2ccc(C3CCN(C(=O)CN(C)C)CC3)cc12 [Example 456]
MEASURED TARGET: human TLR8 (Homo sapiens, UniProt Q9NR97)
IC50: < 100 nM

MOLECULE: CC(C)c1c(-c2ccc3nccn3c2)[nH]c2ccc(C3CCN(Cc4c[nH]cn4)CC3)cc12 [Example 940]
MEASURED TARGET: human TLR8 (Homo sapiens, UniProt Q9NR97)
IC50: < 100 nM

MOLECULE: CCc1c(-c2ccnc3[nH]ncc23)[nH]c2ccc(C3CCN(CC(N)=O)CC3)cc12 [Example 289]
MEASURED TARGET: human TLR8 (Homo sapiens, UniProt Q9NR97)
IC50: < 100 nM

MOLECULE: CC(C)c1c(-c2ccc3nncn3n2)[nH]c2ccc(C3CCNCC3)cc12 [Example 185]
MEASURED TARGET: human TLR8 (Homo sapiens, UniProt Q9NR97)
IC50: 100 to 1000 nM

MOLECULE: CC(C)c1c(-c2ccn3nncc3c2)[nH]c2ccc(C3CCN(C(=O)CN(C)C)CC3)cc12 [Example 465]
MEASURED TARGET: human TLR8 (Homo sapiens, UniProt Q9NR97)
IC50: 100 to 1000 nM

MOLECULE: CC(C)c1c(-c2ccnc3[nH]c(=O)oc23)[nH]c2ccc(C3CCNCC3)cc12 [Example 58]
MEASURED TARGET: human TLR8 (Homo sapiens, UniProt Q9NR97)
IC50: 1000 to 50000 nM

MOLECULE: CC1CC(N2CCC(c3ccc4[nH]c(-c5ccnc6[nH]ncc56)c(C(C)C)c4c3)CC2)CCN1 (stereo not shown) [Example 820]
MEASURED TARGET: human TLR8 (Homo sapiens, UniProt Q9NR97)
IC50: < 100 nM

MOLECULE: COc1cc(-c2[nH]c3ccc(C4CCN(C5COC5)CC4)cc3c2C(C)C)nn2ncnc12 [Example 732]
MEASURED TARGET: human TLR8 (Homo sapiens, UniProt Q9NR97)
IC50: < 100 nM

MOLECULE: Cc1nnn2ccc(-c3[nH]c4ccc(C5CCN(Cc6ncn(C)n6)CC5)cc4c3C(C)C)cc12 [Example 889]
MEASURED TARGET: human TLR8 (Homo sapiens, UniProt Q9NR97)
IC50: < 100 nM

MOLECULE: Cc1c(-c2[nH]c3ccc(C4CCN(C(=O)CN(C)C)CC4)cc3c2C(C)C)c2cccnc2n1C [Example 459]
MEASURED TARGET: human TLR8 (Homo sapiens, UniProt Q9NR97)
IC50: < 100 nM

MOLECULE: CNC(=O)c1cnn2c(C)cc(-c3[nH]c4ccc(C5CCNCC5)cc4c3C(C)C)cc12 [Example 274]
MEASURED TARGET: human TLR8 (Homo sapiens, UniProt Q9NR97)
IC50: > 3130 nM

MOLECULE: CCOc1cc(-c2[nH]c3ccc(C4CCN(C(=O)CN(C)C)CC4)cc3c2C(C)C)cc2nc(C)nn12 [Example 497]
MEASURED TARGET: human TLR8 (Homo sapiens, UniProt Q9NR97)
IC50: < 100 nM

MOLECULE: Cc1cc2cc(-c3[nH]c4ccc(C5CCN(C6COC6)CC5)cc4c3C(C)C)cc(CC(C)C)n2n1 [Example 716]
MEASURED TARGET: human TLR8 (Homo sapiens, UniProt Q9NR97)
IC50: > 3130 nM

MOLECULE: CC(C)c1c(-c2cn(C)c3ncccc23)[nH]c2ccc(C3CCN(C4CCS(=O)(=O)CC4)CC3)cc12 [Example 784]
MEASURED TARGET: human TLR8 (Homo sapiens, UniProt Q9NR97)
IC50: < 100 nM

MOLECULE: CNC(=O)CN1CCC(c2ccc3[nH]c(-c4cnc5c(cnn5C)c4)c(C(C)C)c3c2)CC1 [Example 366]
MEASURED TARGET: human TLR8 (Homo sapiens, UniProt Q9NR97)
IC50: < 100 nM

MOLECULE: Cc1cc(-c2[nH]c3ccc(C4CCN(C(=O)CN(C)C(C)C)CC4)cc3c2C(C)C)cn2nnnc12 [Example 480]
MEASURED TARGET: human TLR8 (Homo sapiens, UniProt Q9NR97)
IC50: < 100 nM

MOLECULE: Cc1cn2cc(-c3[nH]c4ccc(C5CCN(C(C)C)CC5)cc4c3C(C)C)cc(C(F)(F)F)c2n1 [Example 943]
MEASURED TARGET: human TLR8 (Homo sapiens, UniProt Q9NR97)
IC50: 100 to 1000 nM

MOLECULE: CCc1c(-c2cccc3[nH]ncc23)[nH]c2ccc(C3CCN(CC(=O)N(C)C)CC3)cc12 [Example 389]
MEASURED TARGET: human TLR8 (Homo sapiens, UniProt Q9NR97)
IC50: 1000 to 50000 nM

MOLECULE: Cc1nc2ccc(-c3[nH]c4ccc(C5CCNCC5)cc4c3C(C)C)cc2o1 [Example 6]
MEASURED TARGET: human TLR8 (Homo sapiens, UniProt Q9NR97)
IC50: 100 to 1000 nM

MOLECULE: CNC(=O)CN1CCC(c2ccc3[nH]c(-c4cc(C)c5nccn5c4)c(C(C)C)c3c2)CC1 [Example 397]
MEASURED TARGET: human TLR8 (Homo sapiens, UniProt Q9NR97)
IC50: < 100 nM

MOLECULE: CCc1c(-c2ccnc3[nH]ccc23)[nH]c2cc(C)c(C3CCN(C4CCN(C(C)C)CC4)CC3)cc12 [Example 840]
MEASURED TARGET: human TLR8 (Homo sapiens, UniProt Q9NR97)
IC50: 1000 to 50000 nM

MOLECULE: Cc1cc2nccn2cc1-c1[nH]c2ccc(C3CCN(C4CCOCC4)CC3)cc2c1C(C)C [Example 693]
MEASURED TARGET: human TLR8 (Homo sapiens, UniProt Q9NR97)
IC50: < 100 nM

MOLECULE: CNC(=O)CN1CCC(c2ccc3[nH]c(-c4ccn5nc(C)nc5c4)c(C(C)C)c3c2)CC1 [Example 331]
MEASURED TARGET: human TLR8 (Homo sapiens, UniProt Q9NR97)
IC50: 1000 to 50000 nM

MOLECULE: COc1c(C)c(-c2[nH]c3ccc(C4CCNCC4)cc3c2C(C)C)nn2ncnc12 [Example 33]
MEASURED TARGET: human TLR8 (Homo sapiens, UniProt Q9NR97)
IC50: < 100 nM

MOLECULE: CCc1c(-c2ccn3cnnc3c2)[nH]c2ccc(C3CCNCC3)cc12 [Example 204]
MEASURED TARGET: human TLR8 (Homo sapiens, UniProt Q9NR97)
IC50: 100 to 1000 nM

MOLECULE: CC(C)c1c(-c2cn(C)c3ncccc23)[nH]c2ccc(C3CCN(CCC#N)CC3)cc12 [Example 959]
MEASURED TARGET: human TLR8 (Homo sapiens, UniProt Q9NR97)
IC50: < 100 nM

MOLECULE: Cc1cc(-c2[nH]c3ccc(C4CCN(CC(C)(C)O)CC4)cc3c2C(C)C)cc2cccnc12 [Example 771]
MEASURED TARGET: human TLR8 (Homo sapiens, UniProt Q9NR97)
IC50: < 100 nM

MOLECULE: CC(C)c1c(-c2ccc(C#N)c3ncccc23)[nH]c2ccc(C3CCN(C4COC4)CC3)cc12 [Example 714]
MEASURED TARGET: human TLR8 (Homo sapiens, UniProt Q9NR97)
IC50: < 100 nM
